Kindly state apparent KD of K4 kissing-loop reporter for each of the entries shown.
Tested on: K4 kissing-loop RNA reporter
Test: apparent KD of K4 kissing-loop reporter; higher = weaker reporter binding
Details: Eterna round: R107; input ligand: theophylline 20 uM
Answers are plain numbers, in nM.

# chain-sequence, apparent KD of K4 kissing-loop reporter, nM
rows = [
    ("UGGAGUUGACGAAAAGUCAACUCCUGAGAUACCAGUGACGAAAGUCACCCUUGGCAGCUCACUGCCAGUGAUGUUGGAAAUAAAA [#01 K4 Theophylline A Same State]", 337),
]

Answer for every listed entry: what is its apparent KD of K4 kissing-loop reporter? The entries follow.
1. ACGACGCAUAGUGAUACCAGCACAAUAUGAGUGAUGUUCAACAUAUAAAUGUAAUAAUUAUGCCCUUGGCAGCACUAUGCGUCAG [KL-SSTheoB1]
2. AUUUUGGUUUAGAGUGAUGUUCCUUGUAUUCGAGGACCGGUACGGCCGCCACUCGAAUAGAAAAGAAAAGAAAUGAGUGAUGUUU [BDazzled - #4 SS Tryptophan A]
3. GUAUAUCGAACUGAUACCAGAGAAUAUAGCAGUGAUGUUGCAUAUAUGAAUAAGACUCGACUCCCUUGGCAGCGGGAAGAUAUAC [On purpose 2]
4. AGUGAUGUUGUGUUGUGUUAGGGAAGUGAUCGAGGACCGGUACGGCCGCCACUCGAGUGAUGAGUGAGUGAUGUUUGUUUAGGGA [whbob_SS_Tryp_A_m8]
5. AGACCACAAAGUGGUCAGUGUUCGCGGCAGCGAGGACCGGUACGGCCGCCACUCGCGAGUGAUGUUCGCGAGAGCCGCGAACACA [Omei KL Tryp A Exc A v8]
6. GGAGUUACCUGGGAUACCAGUCGGAGUCUCAGAGCACAGAGUGAUGUUCUGGGAUGUUUCGGCCCUUGGCAGCUCUGGGACUCCA [#2 Exclusion - Theophylline B Attempt #14 (HarryS)]
7. CUGACGCUGAUACGGUGGCCGCUGGUCGUGCGAGGACCGGUACGGCCGCCACUCGCAUGAGUGAUGUUCAUGUGUCGUCGUCGUC [#07 K4 Tryptophan A Exclusion]
8. GCCCGAAAGGGCCGAAGUGUUUGCGGCGAUCGAGGACCGGUACGGCCGCCACUCGUCGAGGCGUUCAGUGAUGUUGAAAGCAUGA

Response:
707
357
166
3230
93.8
265
105
266

---

System: K4 kissing-loop RNA reporter
Assay: apparent KD of K4 kissing-loop reporter; higher = weaker reporter binding
Details: Eterna round: R107; input ligand: none
Would you mind telling me the reported apparent KD of K4 kissing-loop reporter of each entry?
Give bare numbers, in nM.

These solved cases illustrate the format of a correct answer.
# chain-sequence, unit-info, apparent KD of K4 kissing-loop reporter
data = [
    ("GUUACGCAUGGAAGGAGCGCGAUAAUAUUAAGUGAGUGAUGUUCACAAAGAAAAUAAAUAACGCAGGUAGGUCGCCAUGUGUAAC [Ex Arginine B K4 4]", "nM", 80.8),
    ("UCUGGAGGAUAUGAUACCAGCAGUGAGAGAGAGGAAGUAUAGUGAUGUUAUAUGAGAGAAUGCCCUUGGCAGCGUGUGUAGUGGG [SSTheophylB.L]", "nM", 135),
]

Next:
Query: Fill: apparent KD of K4 kissing-loop reporter (K4 kissing-loop RNA reporter) for this sequence UGUAUGUGAUUUGAUACCAGACCAGUUGGUGGUAUAUGAGUGAUGUUUAUGUUGGUUUGGGUCCCUUGGCAGCAAAUCGCAUACU [KL-SSTheoB11]
Response: 491

---

System: MS2 coat protein
Experiment: apparent KD of MS2 coat protein; designed switch direction (-1 OFF switch, 1 ON switch): -1; higher = weaker reporter binding
Conditions: Eterna round: R95; input ligand: microRNA oligo, concentration not stated
Please go through the items and note down their apparent KD of MS2 coat protein.
Answers are plain numbers, in nM.

# chain-sequence, apparent KD of MS2 coat protein (nM)
measured = [
    ("CUUUUGUGAGGAUAUUAGUAGUAAAUAAAUAAAAUUAUUACUGAGAAGGCACAUGAGGAUCACCCAUGUUCCUC [salish99_ex4_r3_062] (puzzle: Exclusion 4)", 35.1),
    ("GCACGGUAAGUGAGGAUAUACCUCUGGAUACAGAGGUAGAAGGCACAUGAGGAUCACCCAUGUCUAAACCGUGC [Fiskers BMX 4 - 82] (puzzle: Brourd's mod of Exclusion 4)", 18.6),
    ("AAGAAACAUGAGGAUCACCCAUGUGAGGAUAUGAUGAAGAAAAGAAAAGAAAGAAGACUCAGAAGGCACAAAGG [salish99-ex1_r3_070] (puzzle: Exclusion 1)", 45.3),
]

Please supply apparent KD of MS2 coat protein for each of the following items, keeping them in order.
1. AGUACUAACACGAAAGUGUUAGUACUAUAAGCUUGUGUUACAUGAGGAUCACCCAUGUCCUCAUAAGCUCGUCUUAA [Mat - Sensor v3 - Turn-off var 2 - D63] (puzzle: Sensor v3, turn-off variant 2)
2. UGAAAGGUAGGAUAUACGAAGAAAAAGGGUAGAAUAAUAACACAUGAGGAUCACCCAUGUAGAAGGACCAAAGG [Mat - Exclusion 2 - Mod of my Tesla design - D9] (puzzle: Exclusion 2)

Response:
437
23.2

---

Test system: MS2 coat protein
Experiment: apparent KD of MS2 coat protein; designed switch direction (-1 OFF switch, 1 ON switch): -1; higher = weaker reporter binding
Conditions: input ligand: FMN 200 uM
measure: apparent KD of MS2 coat protein (nM)
Give bare numbers, in nM.

Here's what some known entries look like.
# chain-sequence, tested-on, apparent KD of MS2 coat protein (nM)
measured = [
    ("AUAAUAAAACAUGAGGAUCACCCAUGUGGGUCGUUCUACUGGCAGGAUAUCGCCAGACAAUAAAACGAGAAGGGCCAGUUAAUA [Leanerrean] (Eterna round: R96, puzzle: Exclusion NG 3)", "MS2 coat protein", 168),
    ("CCUUGUGUUGAGGAUAUGCGCCGGCUCGCUGGCGCAGAAGGCGGCACAUGAGGAUCACCCAUGUCAGUUCGCGA [salish99_ex6_r004_012] (Eterna round: R97, puzzle: Exclusion 6)", "MS2 coat protein", 336),
    ("GCAUUUUGGUCGUCUUAUAACAUGAGGAUCACCCAUGUGUUGAGCCCAACUUAUUGUACUCAUGCUAUGGCCUGAUG [Eternabot (L2) Solution 27] (Eterna round: R97, puzzle: Sensor, turn-off variant 1)", "MS2 coat protein", 81.2),
    ("GUACUGAGGCUUUGCUUUAAUCGUACAUGAGGAUCACCCAUGUAGGAUAUGGUAGGCUUUGCUUACCAGAAGGACAGAGUGAUC [JL EXNG3 1.23] (Eterna round: R96, puzzle: Exclusion NG 3)", "MS2 coat protein", 148),
]

Query: Please report apparent KD of MS2 coat protein for the following sequence: AUAAAUCAUGUAGGAUAUGCGUGGCAAAGCUAUGCAGAAGGACAUGAGGAUCACCCAUGUUCUUCCGUCUGCGUACAGACGGAA [Mat - Exclusion NG 1 - Mod of JL - D40] (Eterna round: R96, puzzle: Exclusion NG 1)
Response: 418

---

Test system: MS2 coat protein
Assay: apparent KD of MS2 coat protein, switch OFF state (with FMN for OFF switches, without FMN for ON switches); designed switch direction (-1 OFF switch, 1 ON switch): -1; higher = weaker reporter binding
Settings: FMN input: 0 or 200 uM; Eterna round: R93 (includes R88 designs)
measure: apparent KD of MS2 coat protein (nM)
Numbers only, in nM.

# chain-sequence, apparent KD of MS2 coat protein [nM]
rows = [
    ("AAAAAGGGAGGAUAUACAGGAGGUAAGGUCAAAAAAAAAAAACAUGAGGAUCACCCAUGUAGAAGGUUUAAAAA [Ecls2-V]", 31),
]

Need apparent KD of MS2 coat protein for each of these sequences.
1. AAAAAACAUGAGGAUCACCCAUGUGAGGAUAUGUACGAAAUAAAUAAAAAAUAAAAGUACAGAAGGCACAAAAA [Mat - Exclusion 1 - Eli mod - D5]
2. AACAGUACAGGAUAUACAUGAGGAUCACCCAUGUGAGAAAUAAGUGGCGUACCACAAAGUAGAAGGGUACUGGA [Mat - Exclusion 3 - JL mod - D21]

Response:
1. 32.4
2. 150

---

System: K4 kissing-loop RNA reporter;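 also: bound reporter read as fluorescence of individual clusters on recovered sequencing chips by microscopy, with normalized cluster intensities fitted with a binding model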
Assay: apparent KD of K4 kissing-loop reporter; higher = weaker reporter binding
Conditions: Eterna round: R107; input ligand: FMN 200 uM
measure: apparent KD of K4 kissing-loop reporter
Please state the number and follow it with the unit.

Solved entries:
# chain-sequence, apparent KD of K4 kissing-loop reporter
measured = [
    ("AAUGCAUAGUGAAGGAGCGCGUAUAGCAGUGAUGUUGCUUACUUAUUAUUAUAUUAAUUGACGCAGGUAGGUCGCACUUUGCAUA [JR_ExcArginiB_Sub022]", "0.196 µM"),
    ("UGAGGAGAUUAUGAUACCAGCAGAGAGAGAGAGGAAGUAUAGUGAUGUUAUAUGAGAUAAUGCCCUUGGCAGCAUAAGAAGAAGG [#20 K4 Theophylline B Same State]", "0.182 µM"),
    ("ACGGAUUCGAAUACCGAAUGAAAUAGGGAUACCAGCACGUGAACGUGCCCUUGGCAGCCCAGCCCAGUGAUGUUGGGCCCAUGGC [Biso]", "0.173 µM"),
]

Quick one: give me apparent KD of K4 kissing-loop reporter for each item below, same order please.
1. CCAUCGCUAUUCGAUACCAGCUACUUAGUGAUGUUAAGUUAAAAUCAAUUGUAGAUUGAAAGCCCUUGGCAGCGAAUAGUGAUGG [Theophylline B K4 21]
2. GGACUCAAAUGUAGUGAUGUUACAAGCGAUACCAGUAUCUAACAUUACCCUUGGCAGCGCGCCCAGCUCAGCAAAUUAGAUAGCG [theeternabot_sameState_KL_Theo_A_43]
3. GUAUCGCUAGGAGGAUAUUCCGUUUUUCAUAGAAAUGGCUAUGCGGAGUGAUGUUCCGAUUUACCGGAAGAAGGCCUAGUGAUAC [FMN B 23]
4. AGUGGACAUGUCUAGAGUGAUGUUCUGGAUACCAGACACGAAAGUGUCCCUUGGCAGCCGGAGUGAUGUUCUGGCGUUCACUAAA [Omei KL Theo A Exc B v7]
5. AACUGUCAAGGAACUUGCAACAAAGGUGAUACCAGCAUCGAAAGAUGCCCUUGGCAGCACCAACUUGCAGUGAUGUUGCAAGUAA [(T)'-(H)'-(T1)-(T2)-(H1)-(H2)_Design7]
6. AAGCCAAAGAUUGCUGCGGGUUCCAGAGAUACCAGCCGUAUUGAAGGCCCUUGGCAGCUCGAGUGAUGUUCGAGCCGUCUCUGGC [Lexerati]

Response:
1: 0.157 µM; 2: 0.149 µM; 3: 0.106 µM; 4: 0.476 µM; 5: 0.3 µM; 6: 0.127 µM

// for each sequence below, give its apparent KD of K4 kissing-loop reporter
1. CACCUAGGUACGGCCGCCACUAGAAGUGAUGUUUCGUCUGGUUCCGCAUUACGUGUACUUUCUUAUAGGACCGGGUAGCAAAUAG [theeternabot_exclusion_KL_Trp_B_3]
2. CUUGGAAAGACGGCCGCCACUGGCCAGUGAUGUUGGCCCACCAGGUAAGCCAAGAAGCUUGACGUCAGGACCGGGUCCUAGGAAU [Exclusion TRyptophan B GF 23]
3. ACUAGUUAAUCGGCCGCCACUUCUAGUGAUGUUAGAAUUAUCCAGAUUAUCAGCGUAGCACAUUGAAGGACCGGGAUAAGGUGGU [theeternabot_exclusion_KL_Trp_B_2]
4. UUGCCUCUGGCUGAUACCAGUGAUGCAGGGUAUGAAACAGGGAGUGAUGUUCCCUGCAGCCACCCUUGGCAGCAGUUUAAGUUUG [Exclusion Theophylline B GF 21]
5. UAUUCUGUUCGAAAGAACGGAAUUUCGGAAGGAGCGAGAGAAAUCUCAGGUAGGUCGCCGAAAUUAUUAGGUAGUGAUGUUACCU [Arginine A K4 5]
6. AAAUAGAUCAGUCACCCAGUGAUGUUGGAAGGAGCGUGCGAAAGCACAGGUAGGUCGCCAGAAUAAAAUUGGCUGAUCAAAAUAA

Response:
["0.548 µM", "0.363 µM", "0.275 µM", "0.182 µM", "0.126 µM", "0.26 µM"]
